TGI values for the molecules below.
System: RXF 393 renal
ASSAY DETAILS: NCI tumour cell line growth inhibition, 48 h

Which TGI is reported for this molecule? COc1ccc(NCC(=O)Nn2c(-c3ccccc3)nc3ccccc3c2=O)cc1
> 10 µM

###

System: HCT-15 colon
ASSAY DETAILS: NCI tumour cell line growth inhibition, 48 h
MEASUREMENT NAME: TGI

C=C(C(=C)P(=S)(C(C)C)C(C)C)P(=S)(C(C)C)C(C)C: > 100 µM
C=C=CC(NC(=O)c1ccccc1)(C(=O)O)C(F)(F)F (centres undefined): > 100 µM
CC([O-])=C1C(=O)c2ccccc2C1=O.CC([O-])=C1C(=O)c2ccccc2C1=O.CC[O-].CC[O-].[Ti+4]: > 100 µM
CCc1c(-c2ccc(OC)cc2)oc(OC)c(C)c1=O: > 100 µM
CCCCCCCCCCCc1c(O)c(=O)c2c(oc3c(=O)c(CCCCCCCCCCC)c(O)c(=O)c3n2-c2ccc(N(C)C)cc2)c1=O: 35.6 µM

Form entry - test system: HCT-15 colon; read-out: TGI; compound: C=C1C(=O)OC2CC(C)C3C4OC4C(O)C3(C)C(O)C12 (centres undefined)
77.6 µM

Form entry - test system: HCT-15 colon; read-out: TGI; compound: CC(=O)Nc1n[n+]([O-])c2cc(C)ccc2[n+]1[O-]
14.9 µM

Form entry - test system: HCT-15 colon; read-out: TGI; compound: O=C1/C(=C/c2ccc(O)cc2)COc2ccc(O)c(O)c21
4.07 µM

Form entry - test system: HCT-15 colon; read-out: TGI; compound: Cc1cc(Cl)ccc1C(=O)c1ccc2ccccc2c1C(=O)O
> 100 µM

Form entry - test system: HCT-15 colon; read-out: TGI; compound: O=C(CC1C=Cc2ccccc2N1C(=O)c1ccccc1)c1ccccc1 (centres undefined)
> 100 µM

Form entry - test system: HCT-15 colon; read-out: TGI; compound: COc1cc(Cl)cc(-c2nn(-c3cccc(NC(=O)Nc4ccc(Cl)c(Cl)c4)c3)cc2-c2ccncc2)c1
31.5 µM

Form entry - test system: HCT-15 colon; read-out: TGI; compound: CC(C)C1=CC(=O)[C@@](C)(C2[C@H](O)C[C@@]3(C)[C@@H]4CC=C5[C@@H](CC[C@@H](OC6OCC(O)C(O)C6OC6OC(C)C(O)C(O)C6O)C5(C)C)[C@]4(C)C(=O)C[C@]23C)O1 (some centres undefined)
> 100 µM

Form entry - test system: HCT-15 colon; read-out: TGI; compound: O=[N+]([O-])c1cc2no[n+]([O-])c2cc1N1CCCCC1
11.9 µM

Form entry - test system: HCT-15 colon; read-out: TGI; compound: Cc1nc2cc(Nc3nc(Nc4ccc(F)cc4)nc(N4CCOCC4)n3)ccc2n1Cc1ccccc1
5.18 µM

Form entry - test system: HCT-15 colon; read-out: TGI; compound: COc1cc2ccnc3c(=C(SC)SC)c(=O)c(c1OC)c23
29.8 µM

Form entry - test system: HCT-15 colon; read-out: TGI; compound: COCCOCCOCCOc1cccc2c1C(=O)c1cccc(OCCOCCOCCOC)c1C2=O
> 100 µM

Form entry - test system: HCT-15 colon; read-out: TGI; compound: NCCN1C(=O)c2ccccc2C1c1ccc(Cl)cc1 (centres undefined)
> 100 µM

Form entry - test system: HCT-15 colon; read-out: TGI; compound: COc1cc(-c2c3c(cc4c2OCO4)[C@@H](Nc2ccc(-c4ccc(-c5ccc(N[C@@H]6c7cc8c(cc7C(c7cc(OC)c(O)c(OC)c7)[C@H]7C(=O)OC[C@H]67)OCO8)cc5)cc4)cc2)[C@H]2COC(=O)[C@@H]2C3)cc(OC)c1O (some centres undefined)
4.79 µM

Form entry - test system: HCT-15 colon; read-out: TGI; compound: CCN1C(=NCCO)NS(=O)(=O)c2ccccc21
> 100 µM

Form entry - test system: HCT-15 colon; read-out: TGI; compound: CN(C)c1cccc(F)c1C(=O)NC(=O)Nc1ccc(Cl)cc1
> 31.5 µM

Form entry - test system: HCT-15 colon; read-out: TGI; compound: CC(=O)OCC1OC(n2c(Br)nc3c2c(=O)n(C)c(=O)n3C)C(OC(C)=O)C1OC(C)=O (centres undefined)
> 100 µM

Form entry - test system: HCT-15 colon; read-out: TGI; compound: CC(=O)OC1=CC2(OC(C)=O)CC(C)(C)C1C1C(=O)C=CC(=O)C12 (centres undefined)
> 100 µM

Form entry - test system: HCT-15 colon; read-out: TGI; compound: CC(Oc1ccccc1)C(=O)NNC(=O)OC(C)(C)C (centres undefined)
> 100 µM

Form entry - test system: HCT-15 colon; read-out: TGI; compound: COc1ccc(-c2c(-c3ccccc3)c(C)nc3nc(SC)nc(SC)c23)cc1OC
> 100 µM
